- Experimental Details: chemical genetic growth profiling, strain panel (AID 1159580);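 further: tested at 20 µM; growth read once vehicle control cultures reached saturation at 30 °C; 1 = growth at the plate median or of vehicle wells; lower values mean less growth of the strain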
- Condition Description: S. cerevisiae deletion strains, growth OD, locus YAR019C, strain CDC15, hits give low values
About 2,000 (36%) of roughly 5,500 compounds were called active. Another 18% or so got no clear call; they are omitted. Some of the results follow.
Quick list: normalized growth per entry.
I only need the number, thanks.

Consider the reported normalized growth for these compounds:
N#CC(C#N)=C(SCc1c(Cl)cccc1Cl)SCc1c(Cl)cccc1Cl    0.997
CCOC(=O)CSC(=S)NCc1ccc(C)cc1    0.956

Problem: Recall and state the measured normalized growth for "COc1cc(NC(=S)N(C)C)c(OC)cc1Cl" .
Result: 0.984

Problem: Retrieve normalized growth measured for "COc1cc(NC(=S)NNS(=O)(=O)c2ccc(C)cc2)c(OC)cc1Cl" and print it.
Result: 0.982

Problem: Return reported normalized growth. Input compound: "Cc1cc(Cl)ccc1NNC(=O)c1snnc1C"
Result: 0.971

Problem: Entry "Cc1c(Cc2ccc(F)cc2)c(=O)oc2cc(O)ccc12" needs its normalized growth filled in; supply it.
Result: 0.973

Problem: Consider the compound "O=C(NNc1ccccc1F)c1ccno1" and give its recorded normalized growth.
Result: 0.981

Problem: Return value of normalized growth for input "S=C(Nc1ccc(Cl)cc1Cl)N(c1cccc(Cl)c1)c1nc2ccccc2s1" , no commentary.
Result: 0.956

----------
- Experimental Details: chemical genetic growth profiling, strain panel (AID 1159580);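 further: tested at 20 µM; growth read once vehicle control cultures reached saturation at 30 °C; 1 = growth at the plate median or of vehicle wells; lower values mean less growth of the strain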
- Condition Description: S. cerevisiae deletion strains, growth OD, locus YAL013W, strain DEP1, hits give low values
Out of some 5,500 compounds screened, about 2,000 (36%) were called active. Roughly 18% stayed inconclusive and do not appear here. The list shows a part of the results.
Property Label: normalized growth
Note: the reply should be a number with no unit written.

Examples from the recorded data:
CCOC(=O)[C@H](CCc1ccccc1)N[C@H]1CCc2ccccc2N(CC(=O)O)C1=O    0.989
O=C1C=CC(=C(c2ccc(O)cc2)c2ccc(O)cc2)C=C1    0.985

Problem: In one line, give reported normalized growth of the entry "CC(=O)N[C@@H](CC(C)C)C(=O)O" .
Result: 0.983

Problem: Tell me measured normalized growth for "CCOc1ccc(/C=C(\C#N)c2cccc(Cl)c2)cc1" please.
Result: 0.992

----------
normalized growth for assorted compounds
- Experimental Details: chemical genetic growth profiling, strain panel (AID 1159580);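 further: tested at 20 µM; growth read once vehicle control cultures reached saturation at 30 °C; 1 = growth at the plate median or of vehicle wells; lower values mean less growth of the strain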
- Condition Description: S. cerevisiae deletion strains, growth OD, locus YDR195W, strain ref2
Hit rate of the full screen: of about 5,500 compounds, about 2,000 (36%) were called active. Not shown: some 18% with an inconclusive outcome. Some of the results follow.

Worked cases, normalized growth given:
C=C1C2CC[C@H]3[C@]4(C)C[C@H](OC5OC(CO)C(OS(=O)(=O)O)C(OS(=O)(=O)O)C5OC(=O)CC(C)C)C[C@@H](C(=O)O)[C@H]4CC[C@]3(C2)[C@H]1O (some centres undefined)    0.999 (inactive)
COc1ccc2c(c1OC)C(=O)O[C@@H]2[C@H]1c2cc3c(cc2CCN1C)OCO3    0.985 (inactive)

Here is the next item to consider.
Problem: Give a short answer stating reported normalized growth for "O=C(O)c1c2ccccc2cc2ccccc12" .
Result: 1.26 [resistant] (active)
